Each entry below carries its recorded IC50.
# study system: Human recombinant PDE2A (hPDE2A) (Homo sapiens)
# Construct: His tag (inferred from metal chelate purification); made in house; host or cells: Sf9 insect cells (baculovirus)
# Sequence (O00408 whole entry): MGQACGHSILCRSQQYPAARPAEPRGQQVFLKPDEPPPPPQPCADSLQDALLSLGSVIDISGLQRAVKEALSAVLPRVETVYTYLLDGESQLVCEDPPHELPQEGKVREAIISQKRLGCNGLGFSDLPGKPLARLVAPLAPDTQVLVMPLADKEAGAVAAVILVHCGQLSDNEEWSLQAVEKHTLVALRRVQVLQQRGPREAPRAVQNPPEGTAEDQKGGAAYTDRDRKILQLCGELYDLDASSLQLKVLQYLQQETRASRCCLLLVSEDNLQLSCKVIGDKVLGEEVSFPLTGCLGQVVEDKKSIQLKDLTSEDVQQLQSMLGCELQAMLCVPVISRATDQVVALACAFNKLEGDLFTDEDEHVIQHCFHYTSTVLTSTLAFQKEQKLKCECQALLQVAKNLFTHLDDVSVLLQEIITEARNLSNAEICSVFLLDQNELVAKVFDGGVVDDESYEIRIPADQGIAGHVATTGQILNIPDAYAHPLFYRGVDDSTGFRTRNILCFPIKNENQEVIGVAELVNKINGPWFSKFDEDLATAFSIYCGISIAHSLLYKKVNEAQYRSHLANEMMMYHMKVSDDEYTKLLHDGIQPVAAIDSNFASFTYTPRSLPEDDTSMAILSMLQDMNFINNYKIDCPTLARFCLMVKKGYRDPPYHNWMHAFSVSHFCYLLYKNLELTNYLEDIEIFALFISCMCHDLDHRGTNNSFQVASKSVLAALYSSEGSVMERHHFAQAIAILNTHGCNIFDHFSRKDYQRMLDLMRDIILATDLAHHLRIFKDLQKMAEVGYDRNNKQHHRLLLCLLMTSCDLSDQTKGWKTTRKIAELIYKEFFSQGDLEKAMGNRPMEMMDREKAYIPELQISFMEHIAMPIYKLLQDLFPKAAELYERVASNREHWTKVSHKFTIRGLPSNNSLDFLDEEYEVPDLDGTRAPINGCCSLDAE
# assay method text: In vitro assay PDE2A (SPA, 3H-cGMP hydrolysis)
# Type: biochemical
# run conditions: read-out: hPDE2A pIC50 (converted)
measure: IC50 (µM)

Cc1cc([C@@H]2CN(C(=O)c3cc(C4CC4)ncc3C(F)(F)F)CC[C@H]2C)n2ncnc2n1 [Compound 283] :: 0.00851
C[C@@H]1CCN(C(=O)c2cccc3c2ncn3C)C[C@H]1c1cc(C(F)F)nc2ncnn12 [Compound 178] :: 0.0135
Cc1cc(Cl)cc(C(=O)N2[C@H]3CC[C@H](c4cc(C(F)F)nc5ncnn45)[C@@H]2CC3)c1 [Compound 339] :: 0.00661
O=C(c1ccc(F)c(C(F)(F)F)c1)N1[C@H]2CC[C@H](c3cc(C(F)F)nc4ncnn34)[C@@H]1CC2 [Compound 357] :: 0.0776
C[C@@H]1CCN(C(=O)c2ccc(C(F)(F)F)nc2Cl)C[C@H]1c1cc(C(F)F)nc2ncnn12 [Compound 242] :: 0.135
C[C@@H]1CCN(C(=O)c2cccnc2F)C[C@H]1c1cc(C(F)F)nc2ncnn12 [Compound 262] :: 0.155
Cc1cc(C(=O)N2[C@H]3CC[C@H](c4cc(C(F)F)nc5ncnn45)[C@@H]2CC3)cc(C(F)F)n1 [Compound 294] :: 0.0107

====

# study system: PDE2A (Rattus norvegicus, UniProt Q01062)
# Construct: Twenty μm-thick striatal sections were cut; from tissue; host or cells: rat brain, striatal sections
# Sequence (Q01062 whole entry): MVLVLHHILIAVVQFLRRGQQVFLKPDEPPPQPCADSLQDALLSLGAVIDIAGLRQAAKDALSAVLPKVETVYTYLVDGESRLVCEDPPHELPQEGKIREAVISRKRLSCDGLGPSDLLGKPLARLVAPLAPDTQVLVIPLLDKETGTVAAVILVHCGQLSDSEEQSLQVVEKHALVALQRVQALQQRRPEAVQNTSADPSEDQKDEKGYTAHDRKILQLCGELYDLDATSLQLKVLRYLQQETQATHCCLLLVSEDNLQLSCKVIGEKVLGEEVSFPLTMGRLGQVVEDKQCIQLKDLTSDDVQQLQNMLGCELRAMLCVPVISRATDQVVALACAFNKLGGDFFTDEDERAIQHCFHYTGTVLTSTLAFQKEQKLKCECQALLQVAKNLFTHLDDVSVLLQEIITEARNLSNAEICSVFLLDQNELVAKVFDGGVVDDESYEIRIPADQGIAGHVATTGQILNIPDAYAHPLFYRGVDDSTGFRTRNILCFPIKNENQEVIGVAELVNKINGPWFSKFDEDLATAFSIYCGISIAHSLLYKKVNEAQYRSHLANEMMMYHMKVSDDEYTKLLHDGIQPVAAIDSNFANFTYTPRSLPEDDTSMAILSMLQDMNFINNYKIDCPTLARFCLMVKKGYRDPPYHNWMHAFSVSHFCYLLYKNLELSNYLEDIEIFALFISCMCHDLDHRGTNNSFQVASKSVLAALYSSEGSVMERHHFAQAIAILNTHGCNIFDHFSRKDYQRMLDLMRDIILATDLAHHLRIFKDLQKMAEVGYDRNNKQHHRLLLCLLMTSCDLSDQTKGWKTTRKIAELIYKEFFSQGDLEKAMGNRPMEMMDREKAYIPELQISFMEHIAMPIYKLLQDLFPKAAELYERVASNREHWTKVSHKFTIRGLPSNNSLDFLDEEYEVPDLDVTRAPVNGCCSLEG
# assay method text: PDE2 occupancy by test compounds, ex-vivo autoradiography with [3H]B-17a
# Assay type: in vivo, Male Wistar rats
# run conditions: po, 10 mg/kg, route PO (oral), percentage receptor occupancy, ex-vivo autoradiography, striatum
Quick reference: receptor occupancy at 10 mg/kg of the listed items.
measure: receptor occupancy at 10 mg/kg (%)

Cc1cc(C(=O)N2CC[C@@H](C)[C@H](c3cc(C(F)F)nc4ncnn34)C2)c(C(F)(F)F)cn1 :: 8
COc1ncc(C)cc1C(=O)N1CC[C@@H](C)[C@H](c2cc(C(F)F)nc3ncnn23)C1 :: 3
C[C@@H]1CCN(C(=O)c2cn(C)c3ccccc23)C[C@H]1c1cc(C(F)F)nc2ncnn12 :: -18
C[C@@H]1CCN(C(=O)c2ccnc(C3CC3)c2F)C[C@H]1c1cc(C(F)F)nc2ncnn12 :: 12

====

In this section, each of the molecules is paired with its reported Emax.
# study system: Human recombinant PDE3A (hPDE3A) (Homo sapiens, UniProt Q14432)
# Construct: purchased Scottish Biomedical; host or cells: Sf9 insect cells
# Sequence (Q14432 whole entry): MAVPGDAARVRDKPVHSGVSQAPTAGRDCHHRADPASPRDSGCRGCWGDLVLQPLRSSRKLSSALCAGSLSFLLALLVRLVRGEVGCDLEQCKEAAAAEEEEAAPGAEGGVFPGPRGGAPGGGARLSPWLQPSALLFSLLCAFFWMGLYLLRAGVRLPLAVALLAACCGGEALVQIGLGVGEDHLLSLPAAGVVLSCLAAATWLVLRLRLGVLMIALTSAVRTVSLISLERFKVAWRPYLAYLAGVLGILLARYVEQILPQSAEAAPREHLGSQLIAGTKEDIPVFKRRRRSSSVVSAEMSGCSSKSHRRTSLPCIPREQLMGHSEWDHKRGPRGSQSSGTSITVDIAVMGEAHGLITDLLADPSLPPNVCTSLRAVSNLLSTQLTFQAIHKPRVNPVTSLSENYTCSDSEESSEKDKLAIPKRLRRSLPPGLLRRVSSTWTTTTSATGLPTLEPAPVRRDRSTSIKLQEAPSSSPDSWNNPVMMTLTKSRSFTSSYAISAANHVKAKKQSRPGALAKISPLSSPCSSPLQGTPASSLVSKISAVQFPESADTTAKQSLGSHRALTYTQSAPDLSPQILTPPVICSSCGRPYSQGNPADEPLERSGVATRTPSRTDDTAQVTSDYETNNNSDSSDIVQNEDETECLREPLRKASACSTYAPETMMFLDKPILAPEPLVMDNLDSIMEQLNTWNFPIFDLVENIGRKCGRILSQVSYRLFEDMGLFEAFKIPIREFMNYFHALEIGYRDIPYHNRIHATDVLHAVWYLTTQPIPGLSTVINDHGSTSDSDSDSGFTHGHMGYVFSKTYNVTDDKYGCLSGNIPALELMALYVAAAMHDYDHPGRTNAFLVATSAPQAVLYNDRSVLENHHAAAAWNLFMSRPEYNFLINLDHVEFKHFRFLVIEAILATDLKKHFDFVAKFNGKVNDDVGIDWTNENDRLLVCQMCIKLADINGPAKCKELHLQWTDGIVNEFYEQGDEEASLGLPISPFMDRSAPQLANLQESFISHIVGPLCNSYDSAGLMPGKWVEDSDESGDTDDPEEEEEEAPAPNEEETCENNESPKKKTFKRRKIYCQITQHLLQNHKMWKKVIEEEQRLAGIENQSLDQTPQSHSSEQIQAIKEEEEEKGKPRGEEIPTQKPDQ
# assay method text: In vitro assay PDE3A (SPA, 3H-cAMP hydrolysis);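 further: the method names PDE3A and the table heading PDE3B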
# Type: biochemical
# run conditions: read-out: hPDE3B Emax; read-out: Emax
measure: Emax (%)

Cc1cc(C(=O)N2[C@H]3CC[C@H](c4cc(C(F)F)nc5ncnn45)[C@@H]2CC3)ccc1Cl :: 73
COc1cc(C(=O)N2CC[C@@H](C)[C@H](c3cc(C(F)F)nc4ncnn34)C2)ccc1C1CC1 :: 92
Cc1cc([C@@H]2CN(C(=O)c3nc4ccccc4o3)CC[C@H]2C)n2ncnc2n1 :: 89
C[C@]1(c2cc(C(F)F)nc3ncnn23)CCCN(C(=O)c2ccc3c(ccn3CCF)c2)C1 (single isomer, unassigned) :: 35
Cc1cc([C@@H]2CN(C(=O)c3cc(C)sc3C)CC[C@H]2C)n2ncnc2n1 :: 88
Cc1cc(C#N)cc(C(=O)N2CC[C@@H](C)[C@H](c3cc(C(F)F)nc4ncnn34)C2)c1 :: 61
O=C(c1ccc2c(c1)OC(F)(F)O2)N1[C@H]2CC[C@H](c3cc(C(F)F)nc4ncnn34)[C@@H]1CC2 :: 74
Cn1c(C(=O)N2[C@H]3CC[C@H](c4cc(C(F)F)nc5ncnn45)[C@@H]2CC3)cc2ccccc21 :: 88
COc1c(C(=O)N2CC[C@@H](C)[C@H](c3cc(C(F)F)nc4ncnn34)C2)cccc1C(F)(F)F :: 85
Cc1cc(C(=O)N2CC[C@@H](C)[C@H](c3cc(C(F)F)nc4ncnn34)C2)c(C)s1 :: 70
Cc1ncc(C(=O)N2CC[C@@H](C)[C@H](c3cc(C(F)F)nc4ncnn34)C2)cn1 :: 12
Cc1c(C(=O)N2CC[C@@H](C)[C@H](c3cc(C(F)F)nc4ncnn34)C2)ccnc1Cl :: 42
C[C@@H]1CCN(C(=O)c2cc3ccccc3o2)C[C@H]1c1cc(C(F)F)nc2ncnn12 :: 95
Cc1cc([C@@H]2CN(C(=O)c3ccc(C(C)(C)C)o3)CC[C@H]2C)n2ncnc2n1 :: 74
O=C(c1ccc2cnccc2c1)N1[C@H]2CC[C@H](c3cc(C(F)F)nc4ncnn34)[C@@H]1CC2 :: 73
